Every entry's value here was drawn from patent US9346798B2.

Biological target: Nav 1.7 (Homo sapiens (Human), UniProt Q15858)
Sequence (Q15858 whole entry): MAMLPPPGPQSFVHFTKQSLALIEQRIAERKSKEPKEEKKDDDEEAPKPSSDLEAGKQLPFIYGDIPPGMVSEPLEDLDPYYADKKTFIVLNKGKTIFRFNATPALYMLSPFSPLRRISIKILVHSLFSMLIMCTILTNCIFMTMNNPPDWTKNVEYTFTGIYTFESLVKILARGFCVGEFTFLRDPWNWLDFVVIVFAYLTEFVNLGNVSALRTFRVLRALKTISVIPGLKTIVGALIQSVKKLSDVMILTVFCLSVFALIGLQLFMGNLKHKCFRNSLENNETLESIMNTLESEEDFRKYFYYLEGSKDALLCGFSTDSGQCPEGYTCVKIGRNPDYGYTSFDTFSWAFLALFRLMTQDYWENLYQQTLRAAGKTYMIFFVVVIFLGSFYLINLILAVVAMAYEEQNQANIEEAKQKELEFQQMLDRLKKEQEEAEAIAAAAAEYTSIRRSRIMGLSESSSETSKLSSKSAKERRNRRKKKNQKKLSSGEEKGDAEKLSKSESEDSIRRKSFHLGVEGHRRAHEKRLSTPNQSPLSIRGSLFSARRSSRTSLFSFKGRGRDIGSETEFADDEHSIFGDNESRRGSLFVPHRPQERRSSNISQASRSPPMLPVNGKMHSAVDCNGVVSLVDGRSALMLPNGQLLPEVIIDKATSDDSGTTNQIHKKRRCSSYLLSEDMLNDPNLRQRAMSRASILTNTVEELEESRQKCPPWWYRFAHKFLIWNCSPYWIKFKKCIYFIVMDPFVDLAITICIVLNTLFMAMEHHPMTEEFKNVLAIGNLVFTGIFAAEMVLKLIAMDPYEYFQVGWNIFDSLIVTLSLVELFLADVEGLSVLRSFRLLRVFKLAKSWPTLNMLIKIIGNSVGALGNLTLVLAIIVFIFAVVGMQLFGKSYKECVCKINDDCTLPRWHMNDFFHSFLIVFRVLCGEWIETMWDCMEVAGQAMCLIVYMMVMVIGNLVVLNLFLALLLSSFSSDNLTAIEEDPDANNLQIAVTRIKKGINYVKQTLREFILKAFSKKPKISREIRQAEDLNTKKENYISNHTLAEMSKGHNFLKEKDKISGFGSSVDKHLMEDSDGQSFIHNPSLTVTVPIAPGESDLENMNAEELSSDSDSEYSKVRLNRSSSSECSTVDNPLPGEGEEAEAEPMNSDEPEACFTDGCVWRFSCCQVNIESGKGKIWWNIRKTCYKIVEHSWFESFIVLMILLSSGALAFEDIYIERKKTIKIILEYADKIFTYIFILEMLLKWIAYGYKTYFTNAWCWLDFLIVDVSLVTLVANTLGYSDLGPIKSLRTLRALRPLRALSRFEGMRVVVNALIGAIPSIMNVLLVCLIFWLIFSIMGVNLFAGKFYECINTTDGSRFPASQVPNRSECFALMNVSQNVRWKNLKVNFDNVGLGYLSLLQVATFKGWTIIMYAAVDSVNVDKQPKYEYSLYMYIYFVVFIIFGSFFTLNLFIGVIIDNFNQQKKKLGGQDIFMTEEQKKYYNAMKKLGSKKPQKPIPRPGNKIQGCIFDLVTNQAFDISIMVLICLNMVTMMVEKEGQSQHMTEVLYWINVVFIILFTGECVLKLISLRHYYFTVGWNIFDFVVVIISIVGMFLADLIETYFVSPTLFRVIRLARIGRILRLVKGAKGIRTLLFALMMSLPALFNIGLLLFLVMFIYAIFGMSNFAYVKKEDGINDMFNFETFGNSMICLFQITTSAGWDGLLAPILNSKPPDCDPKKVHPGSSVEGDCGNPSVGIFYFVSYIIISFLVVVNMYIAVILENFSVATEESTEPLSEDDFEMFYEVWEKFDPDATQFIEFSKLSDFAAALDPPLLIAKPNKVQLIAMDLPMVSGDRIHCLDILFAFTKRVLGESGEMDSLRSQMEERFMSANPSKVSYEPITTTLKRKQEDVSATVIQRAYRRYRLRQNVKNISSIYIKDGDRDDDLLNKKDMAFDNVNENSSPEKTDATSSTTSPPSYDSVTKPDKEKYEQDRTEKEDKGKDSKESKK
Experiment: Nav 1.7 in vitro assay, IonWorks Quattro (IWQ) population patch-clamp
Format: cell-based
Conditions: HEK 293 cells stably transfected with Nav 1.7; 26th pulse to -20 mV
reported-metric: IC50 (µM)

Worked examples follow.
## Task Form field: reported IC50 of Cc1ccc(C(C)C)c(N2CCOc3cc(S(=O)(=O)Nc4nccs4)ccc32)c1 [Example 168, 2,2,2-Trifluoroacetate]
## Result 0.643

## Task What do you have for O=S(=O)(Nc1cscn1)c1ccc2c(c1)OCCN2c1ccc(C(F)(F)F)cc1C1=CCNCC1 ?
## Result 0.027

## Task What do you have for O=S(=O)(Nc1cccnn1)c1ccc2c(c1)OCCN2c1ccc(C(F)(F)F)cc1Cl ?
## Result 1.25

## Task What do you have for COc1cc(C#N)ccc1N1C[C@@H](C)Oc2cc(S(=O)(=O)Nc3nccs3)ccc21 (single isomer, unassigned) ?
## Result 0.0455

## Task What do you have for O=S(=O)(Nc1nccs1)c1ccc2c(c1)OCCN2c1ccc(Cl)cc1CC(O)CO (stereo not shown) ?
## Result 0.0125

a: Cc1cc(N2CCOc3cc(S(=O)(=O)Nc4nccs4)ccc32)ccc1Cl [Example 156, 2,2,2-Trifluoroacetate]
b: O=S(=O)(Nc1nccs1)c1ccc2c(c1)OCCN2c1ccccc1Cl
## Task Please indicate which item has the smaller measured IC50: a versus b Please identify the chosen entry by its label.
## Result b
(b: 0.165 µM, a: 2.28 µM)

----------
Biological target: Nav 1.7 (Homo sapiens (Human))
Test: Nav 1.7 in vitro assay, IonWorks Quattro (IWQ) population patch-clamp
Format: cell-based
Conditions: HEK 293 cells stably transfected with Nav 1.7; 26th pulse to -20 mV
reported-metric: IC50 (nM)

Worked examples follow.
## Task Form field: reported IC50 of O=S(=O)(Nc1ncns1)c1ccc2c(c1)OCCN2c1ccc(C(F)(F)F)cc1-c1cncnc1 [Example 23]
## Result 29.8

## Task What do you have for O=S(=O)(Nc1cc(Cl)ncn1)c1ccc2c(c1)OCCN2c1ccc(C(F)(F)F)cc1Cl [Example 9] ?
## Result 876

## Task What do you have for Cc1ccc(C#N)c(N2CCOc3cc(S(=O)(=O)Nc4nccs4)ccc32)c1 [Example 194] ?
## Result 163

## Task What do you have for N#Cc1cc(-c2ccc(F)cc2)ccc1N1CCOc2cc(S(=O)(=O)Nc3nccs3)ccc21 [Example 199] ?
## Result 469

## Task What do you have for N#Cc1ccc(N2CCOc3cc(S(=O)(=O)Nc4nccs4)ccc32)cc1 [Example 76, 2,2,2-Trifluoroacetate] ?
## Result 871

P: Cc1cc(C#N)cc(N2CCOc3cc(S(=O)(=O)Nc4nccs4)ccc32)c1 [Example 124]
Q: O=S(=O)(Nc1ncns1)c1ccc2c(c1)NCCN2c1ccc(C(F)(F)F)cc1Cl [Example 18]
R: COc1ccc(OC)c(N2CCOc3cc(S(=O)(=O)Nc4nccs4)ccc32)c1 [Example 139]
## Task Order field: IC50 | Direction: descending (largest first) Your reply should list the labels following the order given in the request.
## Result Q, P, R
(Q: 1040 nM, P: 160 nM, R: 69.5 nM)

----------
Below, each entry is listed with its recorded pIC50.
Target: Nav 1.5 (Homo sapiens (Human))
Sequence (Q14524 whole entry): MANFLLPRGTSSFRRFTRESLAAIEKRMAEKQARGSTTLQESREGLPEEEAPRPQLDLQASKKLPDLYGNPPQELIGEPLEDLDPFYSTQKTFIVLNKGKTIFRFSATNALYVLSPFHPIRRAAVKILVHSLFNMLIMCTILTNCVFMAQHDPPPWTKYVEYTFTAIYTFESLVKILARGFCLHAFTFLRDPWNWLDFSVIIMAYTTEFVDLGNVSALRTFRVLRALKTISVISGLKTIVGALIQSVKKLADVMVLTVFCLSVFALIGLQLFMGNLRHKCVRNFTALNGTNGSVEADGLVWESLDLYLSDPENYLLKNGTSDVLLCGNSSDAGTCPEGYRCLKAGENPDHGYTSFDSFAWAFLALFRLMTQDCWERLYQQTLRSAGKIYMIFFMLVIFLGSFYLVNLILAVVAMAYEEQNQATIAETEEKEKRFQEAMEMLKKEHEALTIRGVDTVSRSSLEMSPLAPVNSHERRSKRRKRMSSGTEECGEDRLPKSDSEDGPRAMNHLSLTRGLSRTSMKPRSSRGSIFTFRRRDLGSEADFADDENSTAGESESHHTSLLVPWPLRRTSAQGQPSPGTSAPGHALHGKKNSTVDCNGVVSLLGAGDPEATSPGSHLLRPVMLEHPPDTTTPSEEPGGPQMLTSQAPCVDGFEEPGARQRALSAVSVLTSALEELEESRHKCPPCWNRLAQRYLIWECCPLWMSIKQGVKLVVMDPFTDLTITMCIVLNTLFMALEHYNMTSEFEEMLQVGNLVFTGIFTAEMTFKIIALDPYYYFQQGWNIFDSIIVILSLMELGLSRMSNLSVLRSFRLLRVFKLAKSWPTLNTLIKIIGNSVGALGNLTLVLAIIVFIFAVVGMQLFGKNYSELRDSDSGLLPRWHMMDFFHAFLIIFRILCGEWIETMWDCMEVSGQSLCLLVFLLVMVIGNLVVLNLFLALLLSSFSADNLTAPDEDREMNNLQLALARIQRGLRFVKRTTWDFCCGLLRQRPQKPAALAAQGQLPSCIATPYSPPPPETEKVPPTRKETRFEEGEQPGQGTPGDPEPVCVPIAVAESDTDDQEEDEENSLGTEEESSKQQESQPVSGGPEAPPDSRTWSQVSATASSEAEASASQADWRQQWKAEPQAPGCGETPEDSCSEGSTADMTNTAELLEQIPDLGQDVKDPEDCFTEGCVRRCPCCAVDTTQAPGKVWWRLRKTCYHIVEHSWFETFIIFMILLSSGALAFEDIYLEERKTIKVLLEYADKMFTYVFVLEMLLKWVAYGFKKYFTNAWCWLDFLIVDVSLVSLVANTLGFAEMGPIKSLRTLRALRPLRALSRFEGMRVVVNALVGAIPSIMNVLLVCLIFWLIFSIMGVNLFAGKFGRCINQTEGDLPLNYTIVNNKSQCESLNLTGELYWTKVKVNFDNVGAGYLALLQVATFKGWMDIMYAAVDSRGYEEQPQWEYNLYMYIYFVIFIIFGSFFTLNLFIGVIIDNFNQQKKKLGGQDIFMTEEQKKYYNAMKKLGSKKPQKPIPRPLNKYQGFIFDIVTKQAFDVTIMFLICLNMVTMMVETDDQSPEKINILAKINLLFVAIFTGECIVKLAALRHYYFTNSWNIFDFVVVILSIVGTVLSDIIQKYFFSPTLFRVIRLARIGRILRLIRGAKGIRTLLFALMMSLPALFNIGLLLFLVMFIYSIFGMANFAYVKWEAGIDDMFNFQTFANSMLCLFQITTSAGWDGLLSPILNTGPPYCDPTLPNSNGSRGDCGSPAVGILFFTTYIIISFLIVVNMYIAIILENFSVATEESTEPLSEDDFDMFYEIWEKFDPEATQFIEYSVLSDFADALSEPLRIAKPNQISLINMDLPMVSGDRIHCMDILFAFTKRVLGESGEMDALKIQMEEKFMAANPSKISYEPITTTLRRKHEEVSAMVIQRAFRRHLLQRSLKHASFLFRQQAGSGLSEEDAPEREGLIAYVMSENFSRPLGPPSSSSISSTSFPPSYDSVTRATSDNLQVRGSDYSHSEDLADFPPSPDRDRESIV
Experiment: Nav 1.5 in vitro assay, IonWorks Quattro (IWQ) population patch-clamp
Type: cell-based
Conditions: HEK 293 cells stably transfected with Nav 1.5; 26th pulse to -20 mV
pIC50: −log10 of the molar value.

Worked examples follow.
## Task Form field: reported pIC50 of O=S(=O)(Nc1ncns1)c1ccc2c(c1)OCCN2c1ccc(C(F)(F)F)cc1Br
## Result < 5.00

## Task What do you have for O=S(=O)(Nc1nccs1)c1ccc2c(c1)OCCN2c1cccc2scnc12 [Example 72, 2,2,2-Trifluoroacetate] ?
## Result < 5.00

## Task What do you have for N#Cc1c(F)cccc1N1CCOc2cc(S(=O)(=O)Nc3nccs3)ccc21 ?
## Result < 5.00

***
## Task Form field: reported pIC50 of O=S(=O)(Nc1nccs1)c1ccc2c(c1)OCCN2c1cccc(OC(F)(F)F)c1
## Result 5.12

----------
Target: Nav 1.7 (Homo sapiens (Human), UniProt Q15858)
Experiment: Nav 1.7 in vitro PX assay, PatchXpress whole cell voltage clamp
Type: cell-based
Settings: HEK 293 cells stably transfected with human Nav1.7; partially inactivated state (20 to 50% inactivation)
reported-metric: IC50 (µM)

## Task Form field: reported IC50 of COCCOc1ccc(N2CCOc3cc(S(=O)(=O)Nc4ncns4)ccc32)cc1
## Result 9.22

## Task What do you have for O=S(=O)(Nc1nccs1)c1ccc2c(c1)OCCN2Cc1ccccc1 ?
## Result 17.2

## Task What do you have for N#Cc1c(F)cccc1N1CCOc2cc(S(=O)(=O)Nc3nccs3)ccc21 ?
## Result 7.73

## Task What do you have for N#Cc1ccc(Cl)cc1N1CCOc2cc(S(=O)(=O)Nc3nccs3)ccc21 ?
## Result 0.769

## Task What do you have for O=S(=O)(Nc1nccs1)c1ccc2c(c1)OCCN2c1ccc(C(F)(F)F)nc1 ?
## Result 2.9

## Task What do you have for O=S(=O)(Nc1ncns1)c1ccc2c(c1)OCCN2c1ccc(C(F)(F)F)cc1-c1ccncc1 ?
## Result 0.102

## Task What do you have for O=S(=O)(Nc1nccs1)c1ccc2c(c1)OCCN2c1ccc(Cl)c(Cl)c1 [Example 74, 2,2,2-Trifluoroacetate] ?
## Result 4.07

## Task What do you have for N#Cc1cc(F)ccc1N1CCOc2cc(S(=O)(=O)Nc3nccs3)ccc21 ?
## Result 1.49

A: COc1ccc(C#N)c(N2CCOc3cc(S(=O)(=O)Nc4nccs4)ccc32)c1
B: O=S(=O)(Nc1ncns1)c1ccc2c(c1)OCCN2c1ccccc1
## Task Please indicate which item has the smaller measured IC50: A versus B Please identify the chosen entry by its label.
## Result B
(B: 0.756 µM, A: 3.1 µM)

1: COc1ccccc1N1CCOc2cc(S(=O)(=O)Nc3ncns3)ccc21
2: N#Cc1cc(C(F)(F)F)ccc1N1CCOc2cc(S(=O)(=O)Nc3cscn3)ccc21
## Task I'd appreciate it if you could identify which of 1 and 2 has the greater IC50. Please identify the chosen entry by its label.
## Result 2

1: C[C@H]1CN(c2ccc(C(F)(F)F)cc2C#N)c2ccc(S(=O)(=O)Nc3nccs3)cc2O1 (single isomer, unassigned)
2: CC(O)c1ccccc1N1C(=O)COc2cc(S(=O)(=O)Nc3nccs3)ccc21 (stereo not drawn)
3: CCc1ccccc1N1CCOc2cc(S(=O)(=O)Nc3nccs3)ccc21
## Task Order field: IC50 | Direction: descending (largest first) Your reply should list the labels following the order given in the request.
## Result 2, 3, 1

1: O=S(=O)(Nc1nccs1)c1ccc2c(c1)OCCN2c1ccc(Cl)cc1
2: C=C(C)c1ccccc1N1CCOc2cc(S(=O)(=O)Nc3nccs3)ccc21
## Task I'd appreciate it if you could identify which of 1 and 2 has the greater IC50. Please identify the chosen entry by its label.
## Result 1

----------
Below, each entry is listed with its recorded IC50.
Target: Nav 1.5 (Homo sapiens (Human))
Assay: Nav 1.5 in vitro assay, IonWorks Quattro (IWQ) population patch-clamp
Format: cell-based
Conditions: HEK 293 cells stably transfected with Nav 1.5; 26th pulse to -20 mV
Write the number in µM without appending the unit.

## Task Form field: reported IC50 of CC(C)(C)OC(=O)N1CC=C(c2cc(C(F)(F)F)ccc2N2CCOc3cc(S(=O)(=O)Nc4ncns4)ccc32)CC1 [Example 6]
## Result 2.29

## Task What do you have for O=S(=O)(Nc1nccs1)c1ccc2c(c1)OCCN2c1ccc2nccnc2c1 [Example 69, 2,2,2-Trifluoroacetate] ?
## Result 4.44

## Task What do you have for Cc1cc(C#N)cc(N2CCOc3cc(S(=O)(=O)Nc4nccs4)ccc32)c1 [Example 124] ?
## Result 2.33

## Task What do you have for O=S(=O)(Nc1nccs1)c1ccc2c(c1)OCCN2c1cc(Cl)ccc1Cl [Example 180, 2,2,2-Trifluoroacetate] ?
## Result 6.94

## Task What do you have for O=S(=O)(Nc1nccs1)c1ccc2c(c1)OCCN2c1ccc(C(F)(F)F)cc1-c1ccncc1 [Example 53, 2,2,2-Trifluoroacetate] ?
## Result 0.554

***
## Task Form field: reported IC50 of COc1ncc(C(F)(F)F)cc1N1CCOc2cc(S(=O)(=O)Nc3nccs3)ccc21 [Example 145]
## Result 7.38

## Task What do you have for N#Cc1ccc(N2CCOc3cc(S(=O)(=O)Nc4nccs4)ccc32)cc1 [Example 76, 2,2,2-Trifluoroacetate] ?
## Result 6.03

## Task What do you have for N#Cc1ccc(OC(F)(F)F)cc1N1CCOc2cc(S(=O)(=O)Nc3nccs3)ccc21 [Example 128] ?
## Result 3.69
